target: Prostate specific antigen (PSA), purified from human seminal fluid (human, UniProt P07288 25-261); assay: cell-based or functional assay
Bridge positions count the residues as written; N and C are the ends. Ends that are not written are not given here.
Record form. Attribute: PSA-peptide/PSA ratio. Fill in for each entry.
Give your result as the value with the unit written after it.

CVFAHNYNYLVC (disulfide 1-12 (inferred)) [B-2-2 (B-2 N8)] = 3.1 ratio

Please look at the items below and tell me PSA-peptide/PSA ratio for each one, in order.
1. CVFAHNYNYC (disulfide 1-10 (inferred)) [B-2-4 (B-2 10 N8)]
2. CVFTSNYNYC (disulfide 1-10 (inferred)) [A-1-3 (A-1 N6N8Y9)]
3. CVFAHNYDYLVC (disulfide 1-12) [chemically synthesized peptide B-2 (B-2-1, B-2 parent)]
4. CVAYCIQHHCWTC (disulfide (positions not given here)) [C-4-3 (C-4 Q7)]
5. cyclo(HHCWTVAYCIE) (disulfide 3-9 (inferred)) [C-4-7 (cyclic with peptide bond)]

## Result
["1.9 ratio", "1.9 ratio", "3 ratio", "2.1 ratio", "0.8 ratio"]

Hey, just so you know, these numbers are from patent US20040106557A1.
